Item-by-item account of polymerase ribozyme fitness (log ratio)
B1: TPR 5TU (parent)
chain: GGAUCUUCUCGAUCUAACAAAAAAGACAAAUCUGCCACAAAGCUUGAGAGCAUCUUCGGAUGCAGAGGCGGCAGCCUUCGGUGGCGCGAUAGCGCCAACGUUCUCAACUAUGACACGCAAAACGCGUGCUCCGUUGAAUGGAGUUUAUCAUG

Variants of: B1
Test: polymerase ribozyme fitness, log enrichment relative to wild type (log ratio); higher = more active; in vitro selection for triplet polymerase activity
This sample holds only a part of the variants without activity.
Parameter: polymerase ribozyme fitness (log ratio)

- C96G A110G: -3.11
- A30G C32G U56A C57G G86U A142G: ≤ -4.2
- A24G A52G U55A C85U A150C: ≤ -4.2
- A41C G50C G84A: ≤ -4.2
- A37C U144A: -0.958
- G68A C123U: -3.89
- A37C A60C C85U G126C U146C: -2.23
- U55A A106U A107U: -4.11
- C5A C54U C87U U148C: -2.76
- C51U C93G U130C U145A: -3.53
- C93G C108U C116G: ≤ -4.2
- U13C A30U C36G C51U U55A C87A G126U: ≤ -4.2
- U53A C93A C99U G141U: ≤ -4.2
- C57G G59U A64C C103G C116G A137C: ≤ -4.2
- A52C U53A G88C C95U U145C: ≤ -4.2
- G81A U148C: -1.48
- C54U G74C: -3.95
- C87U A115U G140U: -4.19
- A60G G94A: 0.0761
- G34A G50C G92U: ≤ -4.2
- C51A C85A G141A: -1.93
- A22U A66C C85G: ≤ -4.2

Values were extracted from the RNAGym collection of RNA variant scans (doi:10.1073/pnas.2313332121).
